Would you mind telling me the reported protein stability index of each entry?
B1: HDAC6 (parent)
chain: YVHHQALLDVKNIAHQNKFGEDMP

Variants of: B1
Test: protein stability index of a GFP-peptide fusion (GPS, HEK-293T) (PSI 1-6); higher = more stable;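 further: lentivirally expressed fusions sorted by FACS into six bins by GFP to DsRed ratio, PSI derived from sequencing read proportions per bin multiplied by bin number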
Settings: c terminus: a fixed tail appended
Reply briefly: the number, and no unit.

// P24D : protein stability index value = 1.96

// M23L : protein stability index value = 1.97

// H4V : protein stability index value = 1.95

// M23G : protein stability index value = 2.03

// E21A : protein stability index value = 2.01

// G20P : protein stability index value = 1.96

// Q16D : protein stability index value = 2

// H3G : protein stability index value = 2.03

// V10G : protein stability index value = 2.02
